target-system: Drosophila OR47a (Drosophila melanogaster)
Construct: expressed in transfected cells
Sequence (P81921 whole entry): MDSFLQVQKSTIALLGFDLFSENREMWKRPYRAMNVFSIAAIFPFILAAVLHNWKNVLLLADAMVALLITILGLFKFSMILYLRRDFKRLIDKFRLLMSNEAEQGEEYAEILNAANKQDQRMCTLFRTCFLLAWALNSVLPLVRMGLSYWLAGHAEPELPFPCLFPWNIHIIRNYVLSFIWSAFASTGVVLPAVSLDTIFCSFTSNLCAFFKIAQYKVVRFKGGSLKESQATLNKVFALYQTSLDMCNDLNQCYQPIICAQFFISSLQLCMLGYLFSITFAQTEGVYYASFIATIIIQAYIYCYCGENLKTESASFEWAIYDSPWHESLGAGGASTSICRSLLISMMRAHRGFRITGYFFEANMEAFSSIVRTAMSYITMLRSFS
Sequence (Q9VNB5 whole entry partner): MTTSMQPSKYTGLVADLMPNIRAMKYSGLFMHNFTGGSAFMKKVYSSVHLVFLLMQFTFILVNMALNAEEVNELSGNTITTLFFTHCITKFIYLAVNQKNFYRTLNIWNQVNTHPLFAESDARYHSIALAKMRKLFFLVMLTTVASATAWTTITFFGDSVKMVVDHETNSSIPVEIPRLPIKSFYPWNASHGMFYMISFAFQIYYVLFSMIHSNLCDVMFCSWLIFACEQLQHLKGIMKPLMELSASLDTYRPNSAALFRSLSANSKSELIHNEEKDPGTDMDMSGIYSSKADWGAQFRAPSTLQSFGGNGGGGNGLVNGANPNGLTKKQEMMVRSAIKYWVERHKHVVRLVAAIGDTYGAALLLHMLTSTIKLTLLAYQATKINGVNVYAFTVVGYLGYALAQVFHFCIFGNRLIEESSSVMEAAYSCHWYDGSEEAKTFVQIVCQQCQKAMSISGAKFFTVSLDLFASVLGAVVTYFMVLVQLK
procedure-details: Calcium ion fluorescence (GCaMP6) assay, OR47a stable HEK293 cell line
Type: cell-based
test-context: OR47a cell line; odorant cc. 10 µM; mean of biological replicates
observation-type: Average response
Give the figure by itself; no unit, no explanation.

The examples below pair each entry with its known result.
- CCc1ccccc1: 0.0233
- C=C1CCC2CC1C2(C)C (stereo not shown): 0.00

QUERY: Answer briefly: Average response recorded on Drosophila OR47a (Drosophila melanogaster) for C=C1CC/C=C(\C)CC[C@@H]2[C@@H]1CC2(C)C [(-)-trans-caryophyllene]
RESULT: 0.0326

QUERY: Consider the compound C=CCc1ccc(O)c(OC)c1 tested on Drosophila OR47a (Drosophila melanogaster); state its Average response.
RESULT: 0.0283

QUERY: Write down the reported Average response (system: Drosophila OR47a (Drosophila melanogaster)) of CCCC(O)CC (stereo not shown)
RESULT: 0.00

This collection of values is drawn from paper PMC10709440.
